Quick reference: IC50 of the listed items.
Molecular target: human SGLT1 (Homo sapiens)
Construct: Full-length human SGLT1 cDNA on pDream2.1 expression vector was obtained from GenScript Corporation
Sequence (P13866 1-664): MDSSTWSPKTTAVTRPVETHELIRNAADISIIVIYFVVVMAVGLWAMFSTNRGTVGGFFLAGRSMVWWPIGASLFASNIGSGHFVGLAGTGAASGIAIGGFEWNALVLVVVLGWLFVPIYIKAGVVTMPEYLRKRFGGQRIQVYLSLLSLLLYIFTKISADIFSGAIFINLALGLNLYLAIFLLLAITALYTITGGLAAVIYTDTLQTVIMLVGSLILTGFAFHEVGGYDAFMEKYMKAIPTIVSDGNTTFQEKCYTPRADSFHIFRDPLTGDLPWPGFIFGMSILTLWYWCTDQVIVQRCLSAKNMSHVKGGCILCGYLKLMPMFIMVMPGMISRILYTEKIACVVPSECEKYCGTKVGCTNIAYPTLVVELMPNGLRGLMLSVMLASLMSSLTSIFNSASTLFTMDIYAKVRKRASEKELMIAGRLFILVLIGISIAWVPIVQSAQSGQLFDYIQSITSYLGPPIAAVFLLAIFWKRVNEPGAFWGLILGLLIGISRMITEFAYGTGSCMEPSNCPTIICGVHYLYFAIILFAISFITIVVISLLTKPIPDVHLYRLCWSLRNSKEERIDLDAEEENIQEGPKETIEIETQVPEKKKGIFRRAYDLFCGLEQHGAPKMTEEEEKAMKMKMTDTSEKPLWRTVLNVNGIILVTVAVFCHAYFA
Test: Methyl-α-D-[U-14C]glucopyranoside uptake assay, human SGLT1 expressing cells
Settings: COS-7 cells transfected with human SGLT1; 25% human serum; 2 h at 37° C.; sodium-dependent uptake
Protocol: Full-length human SGLT1 cDNA on pDream2.1 expression vector was obtained from GenScript Corporation and propagated in Escherichia coli strain DH5α using Luria-Bertani (LB) medium containing ampicillin. Plasmid DNA was isolated using the QIAGEN Plasmid Midi Kit (QIAGEN Inc.). […] Transfected cells were stored in DMEM containing 10% dimethyl sulfoxide (DMSO) at −80 ° C. […]
value-type: IC50

- compound: "CC(=O)c1ccc(Cc2cc([C@H]3[C@H](O)[C@@H](O)[C@H](O)[C@@H](CO)[C@@H]3O)ccc2Cl)cc1 [Compound 39]"
  experimental-target: "human SGLT1 (Homo sapiens)"
  value-type: "IC50"
  recorded-value: "1000 to 10000 nM"
- compound: "CCOc1ccc(Cc2cc([C@H]3[C@H](O)[C@@H](O)[C@H](O)[C@@H](CO)[C@@H]3O)ccc2Cl)cc1 [Compound 9]"
  experimental-target: "human SGLT1 (Homo sapiens)"
  value-type: "IC50"
  recorded-value: "1000 to 10000 nM"
- compound: "CCc1ccc(Cc2cc([C@H]3[C@H](O)[C@@H](O)[C@H](O)[C@@H](CO)[C@@H]3O)ccc2Cl)cc1 [5 (R = Et)]"
  experimental-target: "human SGLT1 (Homo sapiens)"
  value-type: "IC50"
  recorded-value: "< 1000 nM"
- compound: "C=C1[C@H](CO)[C@@H](O)[C@H](O)[C@@H](O)[C@@H]1c1ccc(Cl)c(Cc2ccc(CC)cc2)c1 [Compound 35]"
  experimental-target: "human SGLT1 (Homo sapiens)"
  value-type: "IC50"
  recorded-value: "1000 to 10000 nM"
- compound: "CCCc1ccc(Cc2cc([C@H]3[C@H](O)[C@@H](O)[C@H](O)[C@@H](CO)[C@@H]3O)ccc2Cl)cc1 [Compound 11]"
  experimental-target: "human SGLT1 (Homo sapiens)"
  value-type: "IC50"
  recorded-value: "1000 to 10000 nM"
- compound: "OC[C@@H]1[C@@H](O)[C@H](O)[C@@H](O)[C@H](c2ccc(Cl)c(Cc3ccc(C4CC4)cc3)c2)[C@H]1O [Compound 10]"
  experimental-target: "human SGLT1 (Homo sapiens)"
  value-type: "IC50"
  recorded-value: "< 1000 nM"
- compound: "CCc1ccc(Cc2cc([C@H]3[C@H](O)[C@@H](O)[C@H](O)[C@@H](COC(C)=O)[C@@H]3O)ccc2Cl)cc1 [Compound 17]"
  experimental-target: "human SGLT1 (Homo sapiens)"
  value-type: "IC50"
  recorded-value: "1000 to 10000 nM"
- compound: "CCc1ccc(Cc2cc([C@H]3[C@H](O)[C@@H](O)[C@H](O)[C@@H](CO)C34CC4)ccc2Cl)cc1 [Compound 37]"
  experimental-target: "human SGLT1 (Homo sapiens)"
  value-type: "IC50"
  recorded-value: "1000 to 10000 nM"

====

Target: human SGLT1 (Homo sapiens, UniProt P13866)
Construct: Full-length human SGLT1 cDNA on pDream2.1 expression vector was obtained from GenScript Corporation
Sequence (P13866 1-664): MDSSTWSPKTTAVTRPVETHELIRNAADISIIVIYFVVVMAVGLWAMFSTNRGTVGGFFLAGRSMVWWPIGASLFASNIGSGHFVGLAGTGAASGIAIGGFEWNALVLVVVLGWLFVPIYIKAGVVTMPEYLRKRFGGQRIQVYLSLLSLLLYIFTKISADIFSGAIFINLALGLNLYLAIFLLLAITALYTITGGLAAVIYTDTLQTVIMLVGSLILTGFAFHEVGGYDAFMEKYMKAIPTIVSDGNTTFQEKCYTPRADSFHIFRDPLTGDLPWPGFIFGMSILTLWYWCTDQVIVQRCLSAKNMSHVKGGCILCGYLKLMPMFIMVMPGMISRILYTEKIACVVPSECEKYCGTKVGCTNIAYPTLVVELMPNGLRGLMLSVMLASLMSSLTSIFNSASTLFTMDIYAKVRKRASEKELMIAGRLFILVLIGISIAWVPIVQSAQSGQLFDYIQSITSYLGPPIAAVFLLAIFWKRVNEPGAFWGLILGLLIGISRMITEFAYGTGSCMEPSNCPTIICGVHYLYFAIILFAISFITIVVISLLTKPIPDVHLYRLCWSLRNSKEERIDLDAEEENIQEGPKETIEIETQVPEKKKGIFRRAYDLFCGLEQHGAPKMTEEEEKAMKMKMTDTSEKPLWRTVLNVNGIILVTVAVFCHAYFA
Experiment: Methyl-α-D-[U-14C]glucopyranoside uptake assay, human SGLT1 expressing cells
Conditions: COS-7 cells transfected with human SGLT1; 25% human serum; 2 h at 37° C.; sodium-dependent uptake
pIC50: −log10 of the molar value.
value-type: pIC50

- compound: "OC[C@@H]1[C@@H](O)[C@H](O)[C@@H](O)[C@H](c2ccc(Cl)c(Cc3ccc(C4CCCCC4)cc3)c2)[C@H]1O"
  recorded-value: "< 5.00"
- compound: "CCc1ccc(Cc2ccccc2O[C@H]2[C@H](O)[C@@H](O)[C@H](O)[C@@H](CO)[C@@H]2O)cc1"
  recorded-value: "< 5.00"
- compound: "CC(O)c1ccc(Cc2cc([C@H]3[C@H](O)[C@@H](O)[C@H](O)[C@@H](CO)[C@@H]3O)ccc2Cl)cc1 (stereo partly shown)"
  recorded-value: "5.00 to 6.00"
- compound: "OC[C@H]1C=C(c2ccc(Cl)c(Cc3ccc(OCC#CC4CC4)cc3)c2)[C@H](O)[C@@H](O)[C@@H]1O"
  recorded-value: "< 5.00"
